The entries below are paired with their reported koff.
target: Recombinant human his-tagged IGF R extracellular domain protein (human) (UniProt P08069); experiment: SPR, Ab captured via anti-huIgG Fc, dissociation at pH 6
Report the value in s⁻¹ with no unit label.

Use the examples below as a reference point.
VRDN-02100 (antibody, human IgG1, kappa, V domains shown) VH: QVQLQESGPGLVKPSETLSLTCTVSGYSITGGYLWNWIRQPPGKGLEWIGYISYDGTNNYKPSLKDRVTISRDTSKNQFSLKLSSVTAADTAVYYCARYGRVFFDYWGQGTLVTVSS VL: DIVMTQSPLSLPVTPGEPASISCRSSQSIVHSNGNTYLQWYLQKPGQSPQLLIYKVSNRLYGVPDRFSGSGSGTDFTLKISRVEAEDVGVYYCFQGSHVPWTFGQGTKVEIKR    9.16e-05
VRDN-02002 (antibody, V domains shown) VH: QVQLQESGPGLVKPSETLSLTCTVSGHSITGGYLWNWIRQPPGKGLEWIGYISYDGTNNYKPSLKDRVTISRDTSKNQFSLKLSSVTAADTAVYYCARYGRVFFDYWGQGTLVTVSS VL: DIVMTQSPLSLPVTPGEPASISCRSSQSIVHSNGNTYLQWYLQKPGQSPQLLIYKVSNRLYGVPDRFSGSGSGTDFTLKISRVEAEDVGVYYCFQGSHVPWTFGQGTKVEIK    9.22e-05

Consider the binder VRDN-02012 (antibody, V domains shown) VH: QVQLQESGPGLVKPSETLSLTCTVSGYSITGGYLWNWIRQPPGKGLEWIGHISYDGTNNYKPSLKDRVTISRDTSKNQFSLKLSSVTAADTAVYYCARYGRVFFDYWGQGTLVTVSS VL: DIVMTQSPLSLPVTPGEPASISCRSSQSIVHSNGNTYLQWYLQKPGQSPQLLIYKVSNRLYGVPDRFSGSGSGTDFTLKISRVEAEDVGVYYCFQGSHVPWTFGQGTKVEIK and give its measured koff.
0.000103
